Each recorded value in this set is attributed to patent US20180055844A1.

test: Pharmacokinetics in monkeys on Day 1 and Day 27; details: female, monkey, in vivo, 15 mg/kg, Day 1, 15 mg/kg, female
assay endpoint: Cmax

1. Cc1nc2cccc(N)c2c(=O)n1C1CCC(=O)NC1=O (stereo not shown): 4.2 µg/mL

====

assay: Pharmacokinetics in monkeys on Day 1 and Day 27; conditions: male, monkey, in vivo, 15 mg/kg, Day 27, 15 mg/kg, male
assay endpoint: Tmax

1) Cc1nc2cccc(N)c2c(=O)n1C1CCC(=O)NC1=O (stereo not shown) [compound of Formula I]: 2 to 4 h

====

assay: Pharmacokinetics in monkeys on Day 1 and Day 27; conditions: male, monkey, in vivo, 0.15 mg/kg, Day 27, 0.15 mg/kg, male
assay endpoint: Tmax (h)

1. Cc1nc2cccc(N)c2c(=O)n1C1CCC(=O)NC1=O (stereo not shown): 4

====

tested on: U251; assay: Invasion of solid tumor cells; assay type: cell-based; details: Homo sapiens, U-251; U251 (PDGF), glioblastoma
pIC50: −log10 of the molar value.
assay endpoint: pIC50

1. Cc1nc2cccc(N)c2c(=O)n1C1CCC(=O)NC1=O (stereo not shown) [compound of Formula I]: 5.43

====

experiment: Stability in human plasma; format: in vitro ADME; details: read-out: t1/2 in human plasma
assay endpoint: half-life (h)

1) Cc1nc2cccc(N)c2c(=O)n1C1CCC(=O)NC1=O (stereo not shown): 3.83

====

test system: lipopolysaccharide-stimulated human peripheral blood mononuclear cells (hPBMCs); experiment: PBMC cytokine profiling; type: cell-based; details: LPS-stimulated hPBMC, read-out: IL-8 production IC50
assay endpoint: IC50

1) Cc1nc2cccc(N)c2c(=O)n1C1CCC(=O)NC1=O (stereo not shown): > 10 µM

====

tested on: OCI-Ly19; assay: 5 day 3H thymidine incorporation assay; assay type: cell-based; conditions: Homo sapiens; OCI-Ly19, GCB subtype
pIC50: −log10 of the molar value.
assay endpoint: pIC50

1. Cc1nc2cccc(N)c2c(=O)n1C1CCC(=O)NC1=O (stereo not shown): < 5.00

====

test: Pharmacokinetics in monkeys on Day 1 and Day 27; settings: female, monkey, in vivo, 15 mg/kg, Day 1, 15 mg/kg, female
assay endpoint: Tmax

1. Cc1nc2cccc(N)c2c(=O)n1C1CCC(=O)NC1=O (stereo not shown) [compound of Formula I]: 2 to 4 h

====

assay: Pharmacokinetics in monkeys on Day 1 and Day 27; details: male, monkey, in vivo, 1.5 mg/kg, Day 1, 1.5 mg/kg, male
assay endpoint: Tmax

1. Cc1nc2cccc(N)c2c(=O)n1C1CCC(=O)NC1=O (stereo not shown): 2 to 4 h

====

experiment: Pharmacokinetics in monkeys on Day 1 and Day 27; conditions: female, monkey, in vivo, 0.15 mg/kg, Day 1, 0.15 mg/kg, female; read-out: AUC0-24
assay endpoint: AUC(0-t)

1) Cc1nc2cccc(N)c2c(=O)n1C1CCC(=O)NC1=O (stereo not shown): 450 ng·h/mL

====

assay: Pharmacokinetics in monkeys on Day 1 and Day 27; conditions: male, monkey, in vivo, 1.5 mg/kg, Day 27, 1.5 mg/kg, male
assay endpoint: Cmax (ng/mL)

1) Cc1nc2cccc(N)c2c(=O)n1C1CCC(=O)NC1=O (stereo not shown) [compound of Formula I]: 560

====

Test system: Farage cells
Experiment: Cytotoxicity assay (3 day ATP production)
Format: cell-based
Details: 72 hours, read-out: Farage (GCB-DLBCL) GIC50
Experimental: Cells line Farage, DOHH2 and Rec-1 were obtained from American Type Culture Collection (Manassas, Va., USA) Cytotoxicity assays were measured in 3 day ATP production assays as follows: The cells were plated in black/clear-bottom 96-well TC plates (BD Falcon, Cat #353948) at 3000 cells/75 μL (for DoHH-2 and Farage cells) or 6000 cells/75 μL (Rec-1 cells) media per well. […] The plates were then analyzed for luminescence in a TopCount NXT Reader (Packard). Each well was counted for one second. […]
assay endpoint: IC50 (µM)

1. Cc1nc2cccc(N)c2c(=O)n1C1CCC(=O)NC1=O (stereo not shown): 0.7
